Where do the numbers come from? From PubChem BioAssay AID272.

test system: Lewis lung carcinoma i.m., BDF1 mice, T/C %; assay: NCI In Vivo Anticancer Drug Screen. Data for tumor model Lewis Lung Carcinoma (intramuscular) in B6D2F1 (BDF1) mice; details: endpoint: median survival time; dose: 6.25 mg/kg/injection; schedule: Q01DX011 (ip); vehicle: saline; higher = longer survival
Inconclusive results are not listed.
assayEndpoint: T/C

Solved cases (4 shown):
1) CNc1ccc(O)cc1    101 % of control
2) OC1CCCC2CCC[N-]C12.OC1CCCC2CCC[N-]C12.[O]=[V][OH] (configuration not stated)    101 % of control
3) CCCCCCCCCCCC[N+](C)(C)C (tested in a mixture with another compound)    110 % of control
4) O=[N+]([O-])O.[Ga]    97 % of control

Respectfully, I request T/C for each entry included below.
1. COc1cc([C@@H]2c3cc4c(cc3C[C@H]3COC(=O)[C@@H]32)OCO4)cc(OC)c1OC
2. COC(=O)[CH](C[N+](=O)[O-])[Hg][Cl] (configuration not stated)
3. NC(C(=O)O)C(F)(F)C(=O)O (configuration not stated)
4. NC(C(=O)O)C(F)C(=O)O (configuration not stated)
5. CSc1ncnc2nc[nH]c12

Given back:
["100 % of control", "115 % of control", "100 % of control", "98 % of control", "90 % of control"]

List T/C for every entry below, keeping the order given.
1. Nc1nc(SCc2ccccc2)c2[nH]cnc2n1
2. CC1OC(=O)C(C2OC2C)=CC1O (configuration not stated)

Given back:
1: 111 % of control; 2: 102 % of control

Asked: Entry FC(F)(F)c1ccc(-c2ccc(OCCN3CCCC3)cc2)cc1 : reported T/C = ?
Given back: 100 % of control

* * *

tested on: Lewis lung carcinoma i.m., BDF1 mice, T/C %; experiment: NCI In Vivo Anticancer Drug Screen. Data for tumor model Lewis Lung Carcinoma (intramuscular) in B6D2F1 (BDF1) mice; conditions: endpoint: median survival time; dose: 2.0 mg/kg/injection; schedule: Q01DX011 (ip); vehicle: saline
Results filed as inconclusive are left out. Rule for the calls: active = survival T/C of 150% or more; inactive = T/C below 125% in these data.
Bench note: report the call from active, inactive

1) Cc1cccc2cc3c(ccc4ccccc43)c[n+]12    inactive
2) O=[As]O    inactive

Asked: Dear all, I need the recorded test outcome for CC[C@](O)(C(=O)O)c1cc2n(c(=O)c1CO)Cc1cc3ccccc3nc1-2 , thank you.
Given back: active

Asked: Proceed to C1OC1CN1CCN(CC2CO2)CC1 (stereo not given)
Given back: inactive

Asked: Same for CCCCCCCCCCCC(c1ccccc1)[N+](C)(C)C (stereo not given)
Given back: inactive

Asked: Continue with CCCCCCCCCCCCCCCCCC[N+](C)(C)C (tested in a mixture with another compound)
Given back: inactive

* * *

Give measured T/C for each item. Keep answers brief.
test system: Lewis lung carcinoma i.m., BDF1 mice, T/C %; assay: NCI In Vivo Anticancer Drug Screen. Data for tumor model Lewis Lung Carcinoma (intramuscular) in B6D2F1 (BDF1) mice; details: endpoint: median survival time; dose: 1.0 mg/kg/injection; schedule: Q01DX011 (ip); vehicle: saline with Tween-80; higher = longer survival
Inconclusive results are not listed.

Use these answered entries as a reference point.
1. Cn1c(Cl)nc2c(Cl)nc(Cl)nc21    102 % of control
2. Cc1n(Cc2ccccc2)c2c([n+]1C)C(=O)c1ccccc1C2=O    89 % of control
3. C[C@H]1CN1C1=CC(=O)C(N2C[C@@H]2C)=CC1=O    113 % of control

We now examine a further molecule.
Asked: So what's the measured T/C for this one? CCCCC(CCC)(CCN)CCCC
Given back: 103 % of control

* * *

tested on: Lewis lung carcinoma i.m., BDF1 mice, T/C %; assay: NCI In Vivo Anticancer Drug Screen. Data for tumor model Lewis Lung Carcinoma (intramuscular) in B6D2F1 (BDF1) mice; conditions: endpoint: mean tumor weight; dose: 50.0 mg/kg/injection; schedule: Q01DX011 (ip); vehicle: saline; higher = larger tumour
Results filed as inconclusive are left out.
assayEndpoint: T/C

These recorded examples may help you get a feel for the data.
1. CCCC(=O)Nc1ncnc2c1ncn2C1OC2COP(=O)(O)OC2C1OC(=O)CCC (stereo not drawn)    106 % of control
2. N=C(N)SCc1c2ccccc2c(CSC(=N)N)c2ccccc12    52 % of control
3. O=c1[nH]c(=O)n(C2CC(O)C(CO)O2)cc1F (stereo not drawn)    18 % of control
4. CS(=O)(=O)OCCC(=O)N1CCN(C(=O)CCOS(C)(=O)=O)CC1    61 % of control
5. N#CSCc1ccc(Cl)cc1Cl    56 % of control

List reported T/C for each of these molecules:
1. O=c1[nH]c2cc(Cl)ccc2c(CCl)c1Cl
2. CN(Cc1ccccc1)/N=N/c1nc[nH]c1C(N)=O
3. C[C@]12C=CC(=O)C=C1CC[C@@H]1[C@@H]2C(=O)C[C@@]2(C)[C@H]1CC[C@]2(O)C(=O)CO

Given back:
["101 % of control", "64 % of control", "36 % of control"]

* * *

tested on: Lewis lung carcinoma i.m., BDF1 mice, T/C %; assay: NCI In Vivo Anticancer Drug Screen. Data for tumor model Lewis Lung Carcinoma (intramuscular) in B6D2F1 (BDF1) mice; conditions: endpoint: mean tumor weight; dose: 6.25 mg/kg/injection; schedule: Q01DX011 (ip); vehicle: other; higher = larger tumour
Inconclusive results are not listed.
assayEndpoint: T/C

1. CCCCn1cnc2c(=S)nc[nH]c21    85 % of control
2. Clc1ncnc2nc[nH]c12    103 % of control

Fill in T/C for each of the 2 compounds listed.
1. Nc1nc(=S)c2ncn(C3CC(O)C(CO)O3)c2[nH]1 (stereo not given)
2. Nc1nc2c(c(=O)[nH]1)NC(CCNc1ccc(C(=O)NC(CCC(=O)O)C(=O)O)cc1)CN2 (stereo not given)

Given back:
1. 112 % of control
2. 100 % of control

Asked: What T/C value was documented for this compound, CSc1ncnc2nc[nH]c12 ?
Given back: 79 % of control

* * *

system: Lewis lung carcinoma i.m., BDF1 mice, T/C %; assay: NCI In Vivo Anticancer Drug Screen. Data for tumor model Lewis Lung Carcinoma (intramuscular) in B6D2F1 (BDF1) mice; conditions: endpoint: median survival time; dose: 25.0 mg/kg/injection; schedule: Q01DX011 (ip); vehicle: other; higher = longer survival
Records with an inconclusive call do not appear.
Please respond with reported T/C for every item in the list.

Working through the 6 molecules below one at a time, give T/C for each.
1. COc1cc(C[C@H]2c3cc(OC)c(OC)cc3CCN2C)c(Oc2cc3c(cc2OC)-c2c(OC)c(OC)cc4c2[C@H](C3)N(C)CC4)cc1OC
2. CCCSc1ncnc2nc[nH]c12
3. CCCCn1cnc2c(=S)nc[nH]c21
4. Clc1ncnc2nc[nH]c12
5. Nc1nc(=S)c2ncn(C3CC(O)C(CO)O3)c2[nH]1 (stereo unspecified)
6. Nc1nc2c(c(=O)[nH]1)NC(CCNc1ccc(C(=O)NC(CCC(=O)O)C(=O)O)cc1)CN2 (stereo unspecified)

Given back:
1. 108 % of control
2. 102 % of control
3. 116 % of control
4. 96 % of control
5. 112 % of control
6. 98 % of control

* * *

test system: Lewis lung carcinoma i.m., BDF1 mice, T/C %; assay: NCI In Vivo Anticancer Drug Screen. Data for tumor model Lewis Lung Carcinoma (intramuscular) in B6D2F1 (BDF1) mice; conditions: endpoint: mean tumor weight (est.); dose: 25.0 mg/kg/injection; schedule: Q01DX011 (ip); vehicle: saline; higher = larger tumour
Records with an inconclusive call do not appear.
assayEndpoint: T/C

Look over these answered cases.
1) OC1CCCC2CCC[N-]C12.OC1CCCC2CCC[N-]C12.[O]=[V][OH] (stereo unspecified)    50 % of control
2) Cc1cc[n+](CCc2ccccc2)cc1    95 % of control
3) CNc1ccc(O)cc1    89 % of control
4) CSc1ncnc2nc[nH]c12    80 % of control

// for each compound below, give its T/C
1. CSc1nc(N)cc(NC(=O)CCl)n1
2. OCC1OC(n2cnc3c(Cl)ncnc32)C(O)C1O (stereo unspecified)

Given back:
1. 92 % of control
2. 121 % of control

* * *

For each of the compounds below, state its T/C.
tested on: Lewis lung carcinoma i.m., BDF1 mice, T/C %; experiment: NCI In Vivo Anticancer Drug Screen. Data for tumor model Lewis Lung Carcinoma (intramuscular) in B6D2F1 (BDF1) mice; conditions: endpoint: mean tumor weight (est.); dose: 12.5 mg/kg/injection; schedule: Q01DX011 (ip); vehicle: saline; higher = larger tumour
Inconclusive results are not listed.

Hey, quick one: what's T/C for each of these?
1. CC(=O)[O][Hg][c]1s[c]([Hg][O]C(C)=O)[c]([Hg][O]C(C)=O)[c]1[Hg][O]C(C)=O
2. CSc1ncnc2nc[nH]c12

Given back:
1: 37 % of control; 2: 78 % of control
